// data source = PubChem BioAssay AID1963980

Each entry below carries its reported IC50.
- System: 475296-252-R-J1-PDC spheroid viability
- protocol-text: Anticancer human tumor 475296-252-R-J1-PDC patient-derived rectal carcinoma cell line growth inhibition [PI3K]
- condition-summary: curve of first compound; second compound 10 µM; spheroids with HUVEC and MSC

Consider the following illustrative entries.
- compound: "C[C@@H](NC(=O)c1ncnc(N)c1Cl)c1ncc(C(=O)Nc2cc(C(F)(F)F)c(Cl)cn2)s1 + CC(Nc1ncnc2nc[nH]c12)c1cc2cccc(Cl)c2c(=O)n1-c1ccccc1"
  assay-system: "475296-252-R-J1-PDC spheroid viability"
  IC50: "> 10 µM"
- compound: "Cn1ncnc1[C@H]1c2n[nH]c(=O)c3cc(F)cc(c23)N[C@@H]1c1ccc(F)cc1 + CC(Nc1ncnc2nc[nH]c12)c1cc2cccc(Cl)c2c(=O)n1-c1ccccc1"
  assay-system: "475296-252-R-J1-PDC spheroid viability"
  IC50: "> 0.1 µM"
- compound: "C#Cc1c(F)ccc2cc(O)cc(-c3ncc4c(N5CC6CCC(C5)N6)nc(OCC56CCCN5CC(F)C6)nc4c3F)c12 (stereo not drawn) + CC(Nc1ncnc2nc[nH]c12)c1cc2cccc(Cl)c2c(=O)n1-c1ccccc1"
  assay-system: "475296-252-R-J1-PDC spheroid viability"
  IC50: "1.76 µM"

What does the data say about its IC50? Entry: Cn1nccc1Nc1nccc(-c2ccn(C(CO)c3ccc(Cl)c(F)c3)c(=O)c2)n1 (stereo not drawn) + CC(Nc1ncnc2nc[nH]c12)c1cc2cccc(Cl)c2c(=O)n1-c1ccccc1
> 10 µM

What does the data say about its IC50? Entry: CC1(C)CCC(Nc2ncc(C(F)(F)F)c(-c3c[nH]c4c(P(C)(C)=O)c(C#N)ccc34)n2)CN1 (stereo not drawn) + CC(Nc1ncnc2nc[nH]c12)c1cc2cccc(Cl)c2c(=O)n1-c1ccccc1
9.12 µM

What does the data say about its IC50? Entry: CC(Cn1ccc(-c2ccc(C#N)c(Cl)c2)n1)NC(=O)c1cc(C(C)O)[nH]n1 (stereo not drawn) + CC(Nc1ncnc2nc[nH]c12)c1cc2cccc(Cl)c2c(=O)n1-c1ccccc1
> 10 µM

What does the data say about its IC50? Entry: CC1(C)CCC(Nc2ncc(C(F)(F)F)c(-c3c[nH]c4c(P(C)(C)=O)c(C#N)ccc34)n2)CN1 (stereo not drawn) + Cc1nc(NC(=O)N2CCCC2C(N)=O)sc1-c1ccnc(C(C)(C)C(F)(F)F)c1
> 10 µM

What does the data say about its IC50? Entry: CC(C)NCC(C(=O)N1CCN(c2ncnc3c2C(C)CC3O)CC1)c1ccc(Cl)cc1 (stereo not drawn) + CC(Nc1ncnc2nc[nH]c12)c1cc2cccc(Cl)c2c(=O)n1-c1ccccc1
> 10 µM

What does the data say about its IC50? Entry: Cn1cnc2c(F)c(Nc3ccc(Br)cc3Cl)c(C(=O)NOCCO)cc21 + CC(Nc1ncnc2nc[nH]c12)c1cc2cccc(Cl)c2c(=O)n1-c1ccccc1
1.21 µM

What does the data say about its IC50? Entry: CC(C)n1nc(-c2ccc3oc(N)nc3c2)c2c(N)ncnc21 + CC(Nc1ncnc2nc[nH]c12)c1cc2cccc(Cl)c2c(=O)n1-c1ccccc1
> 0.1 µM

What does the data say about its IC50? Entry: C=CC(=O)N1CCN(c2nc(=O)n(-c3c(C)ccnc3C(C)C)c3nc(-c4c(O)cccc4F)c(F)cc23)C(C)C1 (stereo not drawn) + Cc1nc(NC(=O)N2CCCC2C(N)=O)sc1-c1ccnc(C(C)(C)C(F)(F)F)c1
> 10 µM

What does the data say about its IC50? Entry: CC(=O)c1c(C)c2cnc(Nc3ccc(N4CCNCC4)cn3)nc2n(C2CCCC2)c1=O + CC(Nc1ncnc2nc[nH]c12)c1cc2cccc(Cl)c2c(=O)n1-c1ccccc1
> 0.1 µM

What does the data say about its IC50? Entry: CC(C)n1nc(-c2ccc3oc(N)nc3c2)c2c(N)ncnc21 + Cc1nc(NC(=O)N2CCCC2C(N)=O)sc1-c1ccnc(C(C)(C)C(F)(F)F)c1
> 0.1 µM

###

- Tested on: 475296-252-R-J1-PDC spheroid viability
- protocol-text: Anticancer human tumor 475296-252-R-J1-PDC cell line growth inhibition [PI3K];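 also: spheroids exposed to agents for seven days before readout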
- condition-summary: second compound 0.0316 µM; first compound 0.1 µM; stronger effect = lower value; spheroids with HUVEC and MSC
endpoint-label: viability, T/C (%)
I only need the number, in %, no unit after it.

Consider the following illustrative entries.
- molecule: "Cn1ncc(Cl)c1-c1cc(C(=O)NC(CN)Cc2cccc(F)c2)sc1Cl (stereo not given) + CC(Nc1ccc2c(c1)OCCn1cc(N3C(=O)OCC3C(F)F)nc1-2)C(N)=O"
  viability, T/C / %: 88.1
- molecule: "CC(C)NCC(C(=O)N1CCN(c2ncnc3c2C(C)CC3O)CC1)c1ccc(Cl)cc1 (stereo not given) + COc1c(OCCCN2CCOCC2)ccc2c3n(c(=NC(=O)c4cnc(N)nc4)nc12)CCN3"
  viability, T/C / %: 102
- molecule: "CC1(C)CCC(CN2CCN(c3ccc(C(=O)NS(=O)(=O)c4ccc(NCC5CCOCC5)c([N+](=O)[O-])c4)c(Oc4cnc5[nH]ccc5c4)c3)CC2)=C(c2ccc(Cl)cc2)C1 + CC(Nc1ncnc2nc[nH]c12)c1cc2cccc(Cl)c2c(=O)n1-c1ccccc1"
  viability, T/C / %: 99.1

What does the data say about its viability, T/C? Entry: CC1(C)CCC(Nc2ncc(C(F)(F)F)c(-c3c[nH]c4c(P(C)(C)=O)c(C#N)ccc34)n2)CN1 (stereo not given) + CC(Nc1ncnc2nc[nH]c12)c1cc2cccc(Cl)c2c(=O)n1-c1ccccc1
93

What does the data say about its viability, T/C? Entry: C#Cc1c(F)ccc2cc(O)cc(-c3ncc4c(N5CC6CCC(C5)N6)nc(OCC56CCCN5CC(F)C6)nc4c3F)c12 (stereo not given) + COc1c(OCCCN2CCOCC2)ccc2c3n(c(=NC(=O)c4cnc(N)nc4)nc12)CCN3
76.4

###

- Tested on: 475296-252-R-J1-PDC spheroid viability
- protocol-text: Anticancer human tumor 475296-252-R-J1-PDC cell line growth inhibition [PI3K];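 also: spheroids exposed to agents for seven days before readout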
- condition-summary: second compound 3.16 µM; first compound 0.1 µM; stronger effect = lower value; spheroids with HUVEC and MSC
Each entry below carries its reported viability, T/C.
I only need the number, in %, no unit after it.

Consider the following illustrative entries.
- compound: "C[C@@H](NC(=O)c1ncnc(N)c1Cl)c1ncc(C(=O)Nc2cc(C(F)(F)F)c(Cl)cn2)s1 + Cc1nc(NC(=O)N2CCCC2C(N)=O)sc1-c1ccnc(C(C)(C)C(F)(F)F)c1"
  unit-of-measurement: "%"
  viability, T/C: 79.4
- compound: "C=CC(=O)N1CCN(c2nc(=O)n(-c3c(C)ccnc3C(C)C)c3nc(-c4c(O)cccc4F)c(F)cc23)C(C)C1 (stereo not given) + Cc1nc(NC(=O)N2CCCC2C(N)=O)sc1-c1ccnc(C(C)(C)C(F)(F)F)c1"
  unit-of-measurement: "%"
  viability, T/C: 85
- compound: "Cn1nccc1Nc1nccc(-c2ccn(C(CO)c3ccc(Cl)c(F)c3)c(=O)c2)n1 (stereo not given) + CC(Nc1ncnc2nc[nH]c12)c1cc2cccc(Cl)c2c(=O)n1-c1ccccc1"
  unit-of-measurement: "%"
  viability, T/C: 96.8
- compound: "Cn1ncnc1[C@H]1c2n[nH]c(=O)c3cc(F)cc(c23)N[C@@H]1c1ccc(F)cc1 + Cc1nc(NC(=O)N2CCCC2C(N)=O)sc1-c1ccnc(C(C)(C)C(F)(F)F)c1"
  unit-of-measurement: "%"
  viability, T/C: 88.6

Then this compound:
What does the data say about its viability, T/C? Entry: CC1(C)CCC(CN2CCN(c3ccc(C(=O)NS(=O)(=O)c4ccc(NCC5CCOCC5)c([N+](=O)[O-])c4)c(Oc4cnc5[nH]ccc5c4)c3)CC2)=C(c2ccc(Cl)cc2)C1 + CC(Nc1ncnc2nc[nH]c12)c1cc2cccc(Cl)c2c(=O)n1-c1ccccc1
99.4

###

Each entry below carries its reported viability, T/C.
- System: 475296-252-R-J1-PDC spheroid viability
- protocol-text: Anticancer human tumor 475296-252-R-J1-PDC cell line growth inhibition [PI3K];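 also: spheroids exposed to agents for seven days before readout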
- condition-summary: second compound 0.01 µM; first compound 3.16 µM; stronger effect = lower value; spheroids with HUVEC and MSC
I only need the number, in %, no unit after it.

- compound: "CC1(C)CCC(Nc2ncc(C(F)(F)F)c(-c3c[nH]c4c(P(C)(C)=O)c(C#N)ccc34)n2)CN1 (stereo not drawn) + CC(Nc1ccc2c(c1)OCCn1cc(N3C(=O)OCC3C(F)F)nc1-2)C(N)=O"
  viability, T/C (%): 203

What does the data say about its viability, T/C? Entry: CCCS(=O)(=O)Nc1ccc(F)c(C(=O)c2c[nH]c3ncc(-c4ccc(Cl)cc4)cc23)c1F + CC(Nc1ccc2c(c1)OCCn1cc(N3C(=O)OCC3C(F)F)nc1-2)C(N)=O
82.6

What does the data say about its viability, T/C? Entry: C#Cc1c(F)ccc2cc(O)cc(-c3ncc4c(N5CC6CCC(C5)N6)nc(OCC56CCCN5CC(F)C6)nc4c3F)c12 (stereo not drawn) + CC(Nc1ccc2c(c1)OCCn1cc(N3C(=O)OCC3C(F)F)nc1-2)C(N)=O
75.1
